Read-out: 3-Hydroxy-3-Methylglutaryl-CoA Synthase 2 (HMGCS2), HMGCS2 (gene 3158)
assay_text: LTEA_HepaRG_HMGCS2: Life Technologies and Expression Analysis (LTEA) Assay for 3-Hydroxy-3-Methylglutaryl-CoA Synthase 2 (HMGCS2) using HepaRG (AID 2283504)
assay_context: mRNA level, 48 h; actives raise or lower the signal
Activity calls are given as the source filed them. The calls were made as follows: active = hit-call score of the fitted dose curve at least 0.9, where 1 is the maximum; inactive = score below 0.9.
Labels: YES (active), NO (inactive)

{"columns": ["compound", "label"],
 "data": [
  ["O=C(O)C1(C(=O)Nc2ccc(Cl)cc2Cl)CC1", "YES"],
  ["CN(C)C(=O)Nc1ccc(Cl)c(Cl)c1", "NO"],
  ["C#C[C@]1(O)CC[C@H]2[C@@H]3CCC4=CC(=O)CC[C@@H]4[C@H]3CC[C@@]21CC", "NO"],
  ["CC(=O)S[C@@H]1CC2=CC(=O)CC[C@]2(C)[C@H]2CC[C@@]3(C)[C@@H](CC[C@@]34CCC(=O)O4)[C@H]12", "YES"],
  ["C#CCOC(=O)[C@@H](C)Oc1ccc(Oc2ncc(Cl)cc2F)cc1", "YES"],
  ["CCCN(CCC)c1c([N+](=O)[O-])cc(C(F)(F)F)c(N)c1[N+](=O)[O-]", "YES"],
  ["CCCCOCCOCCOCc1cc2c(cc1CCC)OCO2", "NO"],
  ["C[C@]12CC[C@@H]3c4ccc(O)cc4C[C@@H](CCCCCCCCCS(=O)CCCC(F)(F)C(F)(F)F)[C@H]3[C@@H]1CC[C@@H]2O (some centres undefined)", "YES"],
  ["CC(C)(c1ccc(O)cc1)c1ccc(O)cc1", "NO"],
  ["CC(C)(C)[C@@H](O)[C@@H](Cc1ccc(Cl)cc1)n1cncn1", "NO"],
  ["CCC(C)OC(=O)N1CCCCC1CCO (centres undefined)", "NO"],
  ["CCCCC(CC)CN1C(=O)C2C3C=CC(C3)C2C1=O (centres undefined)", "YES"],
  ["O=C(Nc1ccc([N+](=O)[O-])cc1Cl)c1cc(Cl)ccc1O", "YES"],
  ["CCCCCCC(C)OC(=O)COc1nc(F)c(Cl)c(N)c1Cl (centres undefined)", "NO"],
  ["CCOC(=O)C(C)Oc1ccc(Oc2nc3ccc(Cl)cc3o2)cc1 (centres undefined)", "NO"],
  ["CC1(C)C(C=C(Cl)Cl)C1C(=O)OCc1cccc(Oc2ccccc2)c1 (centres undefined)", "NO"],
  ["C=CCOC(Cn1ccnc1)c1ccc(Cl)cc1Cl (centres undefined)", "YES"],
  ["CSC(=O)c1cccc2nnsc12", "NO"],
  ["CCCN(CCC)C(=O)SCC", "NO"]
]}
